System name: ErbB3 on rat Schwann cells (rat) (UniProt Q62799)
Sequence (Q62799 20-1339): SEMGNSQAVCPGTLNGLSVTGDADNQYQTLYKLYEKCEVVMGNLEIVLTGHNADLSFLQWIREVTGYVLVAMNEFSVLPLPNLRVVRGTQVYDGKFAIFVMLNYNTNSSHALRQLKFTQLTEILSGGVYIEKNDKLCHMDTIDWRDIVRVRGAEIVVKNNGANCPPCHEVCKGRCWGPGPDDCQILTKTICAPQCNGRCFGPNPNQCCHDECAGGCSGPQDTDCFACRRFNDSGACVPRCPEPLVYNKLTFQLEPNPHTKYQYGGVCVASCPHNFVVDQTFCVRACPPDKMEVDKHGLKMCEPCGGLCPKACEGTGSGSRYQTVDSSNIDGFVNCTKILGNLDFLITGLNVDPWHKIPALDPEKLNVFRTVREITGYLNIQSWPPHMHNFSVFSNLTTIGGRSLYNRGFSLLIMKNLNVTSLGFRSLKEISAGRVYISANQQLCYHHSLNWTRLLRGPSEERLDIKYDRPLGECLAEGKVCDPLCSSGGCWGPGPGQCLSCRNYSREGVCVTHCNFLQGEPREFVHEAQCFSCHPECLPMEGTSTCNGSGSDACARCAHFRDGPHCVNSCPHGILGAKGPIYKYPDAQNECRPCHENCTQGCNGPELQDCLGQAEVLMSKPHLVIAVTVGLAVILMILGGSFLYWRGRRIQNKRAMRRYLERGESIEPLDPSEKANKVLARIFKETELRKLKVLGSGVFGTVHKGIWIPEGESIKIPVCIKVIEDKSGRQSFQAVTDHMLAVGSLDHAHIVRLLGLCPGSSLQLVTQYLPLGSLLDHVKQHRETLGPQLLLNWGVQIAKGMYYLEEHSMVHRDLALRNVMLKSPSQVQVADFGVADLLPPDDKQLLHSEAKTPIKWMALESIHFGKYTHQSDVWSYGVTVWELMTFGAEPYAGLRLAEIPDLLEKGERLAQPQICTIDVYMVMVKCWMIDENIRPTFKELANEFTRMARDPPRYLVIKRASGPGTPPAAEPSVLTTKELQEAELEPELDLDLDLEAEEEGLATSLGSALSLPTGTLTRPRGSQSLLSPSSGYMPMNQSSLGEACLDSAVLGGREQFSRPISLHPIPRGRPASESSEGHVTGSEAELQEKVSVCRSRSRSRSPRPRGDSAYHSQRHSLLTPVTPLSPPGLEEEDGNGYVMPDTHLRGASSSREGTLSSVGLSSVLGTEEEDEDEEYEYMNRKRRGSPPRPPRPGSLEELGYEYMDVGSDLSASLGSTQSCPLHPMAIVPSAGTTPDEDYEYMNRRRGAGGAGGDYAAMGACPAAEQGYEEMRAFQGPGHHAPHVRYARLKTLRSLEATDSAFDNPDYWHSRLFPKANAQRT
Test name: cell-based or functional assay
Metric: Schwann cells (SC) (ErbB3) Avg EC50

May I ask what Schwann cells (SC) (ErbB3) Avg EC50 has been recorded for huNRG1(S177-Q237)(NRGE1H)::GG::huFcSEFL2 (Pb) (Fc fusion) SHLVKCGESHKSFCVNGGECFMIEGPSNPSRYLCKCPNEFTGDRCQNDFMASFYKAEELYQGGDKTHTCPPCPAPELLGGPSVFLFPPKPKDTLMISRTPEVTCVVVDVSHEDPEVKFNWYVDGVEVHNAKTKPCEEQYGSTYRCVSVLTVLHQDWLNGKEYKCKVSNKALPAPIEKTISKAKGQPREPQVYTLPPSREEMTKNQVSLTCLVKGFYPSDIAVEWESNGQPENNYKTTPPVLDSDGSFFLYSKLTVDKSRWQQGNVFSCSVMHEALHNHYTQKSLSLSPGK ? > 10 µM

More entries:
May I ask what Schwann cells (SC) (ErbB3) Avg EC50 has been recorded for huNRG1(S177-Q237)(1B4)::GG::huFcSEFL2 (Pb) (Fc fusion) SHLVKCGERDKTFCVNGGECFMIEDSSNPSRYLCKCPNEFTGDRCQKDFMASFYKAEELYQGGDKTHTCPPCPAPELLGGPSVFLFPPKPKDTLMISRTPEVTCVVVDVSHEDPEVKFNWYVDGVEVHNAKTKPCEEQYGSTYRCVSVLTVLHQDWLNGKEYKCKVSNKALPAPIEKTISKAKGQPREPQVYTLPPSREEMTKNQVSLTCLVKGFYPSDIAVEWESNGQPENNYKTTPPVLDSDGSFFLYSKLTVDKSRWQQGNVFSCSVMHEALHNHYTQKSLSLSPGK ? 10 µM

May I ask what Schwann cells (SC) (ErbB3) Avg EC50 has been recorded for huNRG1(S177-Q237)(NRGE1N)::GG::huFcSEFL2 (Pb) (Fc fusion) SHLVKCGENDKSFCVNGGECYMVEGSSIPSRYLCKCPNEFTGDRCQDFFMASFYKAEELYQGGDKTHTCPPCPAPELLGGPSVFLFPPKPKDTLMISRTPEVTCVVVDVSHEDPEVKFNWYVDGVEVHNAKTKPCEEQYGSTYRCVSVLTVLHQDWLNGKEYKCKVSNKALPAPIEKTISKAKGQPREPQVYTLPPSREEMTKNQVSLTCLVKGFYPSDIAVEWESNGQPENNYKTTPPVLDSDGSFFLYSKLTVDKSRWQQGNVFSCSVMHEALHNHYTQKSLSLSPGK ? 0.751 µM

May I ask what Schwann cells (SC) (ErbB3) Avg EC50 has been recorded for huNRG1(S177-F229)(NRGE1C) (E47S_D48T_F49R_M50V) 6xHis (ligand) SHLVKCGEKHKSFCVNGGECFMIEGPSNPSRYLCKCPNEFTGDRCQSTRVASFGGGGEGGGGAGGGGHHHHHH ? 10 µM

May I ask what Schwann cells (SC) (ErbB3) Avg EC50 has been recorded for huNRG1(S177-F229)(NRGE1C) (D48T_F49Q_M50I) 6xHis (ligand) SHLVKCGEKHKSFCVNGGECFMIEGPSNPSRYLCKCPNEFTGDRCQETQIASFGGGGEGGGGAGGGGHHHHHH ? 10 µM

May I ask what Schwann cells (SC) (ErbB3) Avg EC50 has been recorded for huNRG1(S177-Q237)(NRGE1D)::GG::huFcSEFL2 (Pb) (Fc fusion) SHLVKCGESHKSFCVNGGECYMVEGSSIPSRYLCKCPNEFTGDRCQEDFMASFYKAEELYQGGDKTHTCPPCPAPELLGGPSVFLFPPKPKDTLMISRTPEVTCVVVDVSHEDPEVKFNWYVDGVEVHNAKTKPCEEQYGSTYRCVSVLTVLHQDWLNGKEYKCKVSNKALPAPIEKTISKAKGQPREPQVYTLPPSREEMTKNQVSLTCLVKGFYPSDIAVEWESNGQPENNYKTTPPVLDSDGSFFLYSKLTVDKSRWQQGNVFSCSVMHEALHNHYTQKSLSLSPGK ? > 10 µM
